As shown below, each of these compounds has a reported GI50 value.
Tested on: SK-OV-3
ASSAY_DETAILS: NCI tumour cell line growth inhibition, 48 h
Calls of active or inactive are those of the source. Rule as the data show it: active = GI50 up to about 1.1 µM and inactive = higher.

COMPOUND | GI50
O=C1N[C@H](Cc2c[nH]cn2)C(=O)N2CCC[C@@H]12 | > 100 µM (inactive)
C/C=C/C=C\C1OC(O)([C@H](CC)C(=O)NC/C=C/C=C(\C)[C@H](OC)C(C)C2OC(\C=C/C=C/C=C(\C)C(=O)c3c(O)ccn(C)c3=O)[C@H](O)[C@@H]2O)C(O)C(O)C1(C)C (stereo partly drawn) | > 100 µM (inactive)
Cc1ccc(NC(=O)C(=O)CC(=O)C2CCOC2=O)c(C)c1 (stereo not drawn) | > 100 µM (inactive)
Cc1cc(Cl)cc2c1NC(=O)C2(O)CC(=O)c1ccc(Br)cc1 (stereo not drawn) | > 100 µM (inactive)
O=C(O)CCC1c2[nH]c3ccccc3c2CCN1Cc1ccccc1 (stereo not drawn) | > 100 µM (inactive)

In plain terms, C[N+](C)(C)CC(CC(=O)[O-])C1CC1 (stereo not drawn) has a documented GI50 of > 100 µM (inactive)

In plain terms, `CCOC(=O)C(c1c[nH]c2ccccc12)(c1c[nH]c2ccccc12)c1c[nH]c2ccccc12` has a documented GI50 of 30.1 µM (inactive)

In plain terms, COC(=O)C1(Cc2ccc(C)cc2)Cc2c(C)cccc2C1=O (stereo not drawn) has a documented GI50 of 14.5 µM (inactive)

In plain terms, `O=[N+]([O-])c1cccc2nnccc12` has a documented GI50 of 93.3 µM (inactive)

In plain terms, NC(=O)SCCC(N)C(=O)O (stereo not drawn) has a documented GI50 of > 100 µM (inactive)

In plain terms, COc1ccc2c(c1)CCN1CCc3cc(OC)c(OC)cc3CC21 (stereo not drawn) has a documented GI50 of > 100 µM (inactive)

In plain terms, `CCOP(=O)(OCC)C(F)(F)Cc1cnc(C)c2c1COC(C)(C)O2` has a documented GI50 of > 10 µM (inactive)

In plain terms, O=C(c1ccccc1)C1N=NCC1c1ccc([N+](=O)[O-])cc1 (stereo not drawn) has a documented GI50 of > 100 µM (inactive)

In plain terms, `CCC(C)(C)c1ccc(Oc2cccc(C(=O)O)c2)cc1` has a documented GI50 of 72.1 µM (inactive)

In plain terms, CC(C)C1CC=NN1C(=O)OC(C)(C)C (stereo not drawn) has a documented GI50 of > 100 µM (inactive)

In plain terms, O=P1(N(CCCl)CCCl)Oc2ccc(Cl)cc2Sc2c(ccc(Cl)c2Cl)O1 (stereo not drawn) has a documented GI50 of 21.9 µM (inactive)

In plain terms, `CC(C)NC(=O)OCCN=C1c2ccccc2CCc2ccccc21` has a documented GI50 of 24.8 µM (inactive)

In plain terms, `O=c1/c(=C/c2cccc([N+](=O)[O-])c2)sc2nc3ccccc3n12` has a documented GI50 of 67.8 µM (inactive)

In plain terms, `N#CCCC1(CCC#N)S(=O)(=O)OCCOS1(=O)=O` has a documented GI50 of 51.3 µM (inactive)
